experimental details: yeast display, Sf9 membrane polyspecificity reagent, FACS + sequencing; frameworks hold sequencing errors
quantity measured: polyreactivity (PSR sort gate)

• QVQLVESGGGLVQAGGSLRLSCAASGRIFVSNVRGWYRQAPGKERELVAAIDKSGGSTYYADSVKGRFTISRDNAKNSVYLQMNSLKPEDTAVYYCAATSYRQPYRYYYWGQGTQVTVSS = high polyreactivity
• QVQLVESGGGLVQAGGSLSLSCAASGFNFGVNTRGWDRQAPGKERELVAAITGSGSSTDYADSVKGRFTISRDNAKNPVYLQMHRLKPEDTAVYYCAASYYSNYPTYLRYYDWGQGTQVTVSS = high polyreactivity
• QVQLLESGGGLVQAGGSLRLSCAASGRTFRYYTMGWYRQAPGKEREFVDAISSTGGTYYADSVKGRFTISRDNAKNTVYLQMNCLKPEDTAVYYCAATFIQVVVNVQLYDYDYWGQGTQVTVSS = low polyreactivity
• QVQLVESGGGLVQAGGSLRLSCAASGFIFRPYAMGSYRQAPGKERELVAAISYGDGITYYADSVKGRFTISRDNAKNTVYLQMNSLKPEDTAVYYCAAEYVSHFSGYRYDYWGQGTQVTVSS = low polyreactivity
• QVQLVESGGGLVQAGGRLRLSCAASGGLLDIYVMGWYRQAPGKERELVAAITTRGGSTFYADSVKGRFTISRDNAKNTVYLQMNSLIPEDTAVYYCNKRLLVSRSSAQAYGYWGQGTQVTVSS = high polyreactivity
• QVQLEESGGGLVQAGGSLRLSCAASGINFQGNARGWYRQAPGKERELVASITAGGDTTYYADSVKGRFTISRDNAKNTFYLQLNSVKPEDSEVYDCAVYSWLDADDSYPDSILVDYWGQGTQVTVSS = low polyreactivity
• QVQLVESGGGLVQAGGSLRLSCAASGSIFAYYAMGWYRQAPGKEMELVAAITRGGTTYYADSVKGRFTISRDNAKNTVYLQMNSLKPEDTAVYYCAVYYYSGTAGYRYGYWGQATQVTVSS = high polyreactivity
• QVQLVESGGGLVQAGGSLRLSCAASGITFGAYTMGWYRQAPGKERELVAAISGSGGSTYYADSVKGRFTISRDNAKNTVYLQMNSLKPEDTAVTYCNKVLSPHLGCSFDYWGQGTEVTVSS = high polyreactivity

Kindly give each listed record's polyreactivity (PSR sort gate).
1. QVQLVETGGGLVQAGGSLRLSSAASGITFKWNDMGCYRQAPGKEREFVAAITGSTGSTFYADSVKGRFTISRDNAKNTVYLQMNSLKPEDTAVYYCAAGPWFYYWGQGTEVTVSS
2. QVQLVESGGGLVQAGGSLRLSCAASGRTFGGYALGWYRQAPGKERELVATISYSSGSTYYADSVKGRFTISRDNAKNTVYLQMNSLKPEETAVYYCAARIRYFYRYDYWGQGTQVTVTS
3. QVQLVESGGGLVQAGGSLRLSCAASGSIFRRYAMGWYRQAPGKERELVAGITRGGSTYYADSVKGRFTISRDNAKNTVYLQMNSLKPEDTAVYYCNAVRRGLPVVGAYDYWGQGTQVTVSS
4. QVQLVESGGGLVQAGGSLRLSCAASAMAWYRQAPWKERELVATISATGGSTYYADSVKGRFTISRDNAKNTVYLQMNSLKPEDTAVYYCNKDPLVFVYWGQGTQVTVSS
5. QVQLVESGGGLVQAGGSLRLSCAASGSTFYWNALGWYRQAPGKERELVADIDGRGGSTYYADSVKGRFTISRDNAKNTVYLQMNSLKPEDTAVYYCAARAPFLSVPSELDYWGQGTQVTVSS

result:
low polyreactivity
high polyreactivity
high polyreactivity
low polyreactivity
low polyreactivity
